test system: L1210 leukemia ip in BDF1 mice, survival T/C; test: NCI In Vivo Anticancer Drug Screen. Data for tumor model L1210 Leukemia (intraperitoneal) in B6D2F1 (BDF1) mice; settings: endpoint: mean survival time; dose: 25.0 mg/kg/injection; schedule: Q04DX003 (ip); vehicle: saline with Tween-80; higher = longer survival
Toxic doses and inconclusive results are not listed.
endpoint-label: T/C

Measured T/C for this entry N#C/C(=C\c1ccc(-c2ccccc2)cc1)c1ccc(Cl)cc1 on L1210 leukemia ip in BDF1 mice, survival T/C: 95 % of control

Measured T/C for this entry C/C(=N/N)c1ccc(Br)cc1 on L1210 leukemia ip in BDF1 mice, survival T/C: 105 % of control

Measured T/C for this entry [N-]=[N+]=NCc1nnc2ncnc(N)c2n1 on L1210 leukemia ip in BDF1 mice, survival T/C: 94 % of control

Measured T/C for this entry CC(NC(=O)NCCCl)c1ccccc1 (configuration not stated) on L1210 leukemia ip in BDF1 mice, survival T/C: 100 % of control

Measured T/C for this entry S=C(S)NNc1ccccc1 on L1210 leukemia ip in BDF1 mice, survival T/C: 104 % of control

Measured T/C for this entry COc1nc(C)c(C)[n+]([O-])n1 on L1210 leukemia ip in BDF1 mice, survival T/C: 110 % of control

Measured T/C for this entry COc1ccc(C(=O)C=C(C(F)(F)F)C(F)(F)F)cc1 on L1210 leukemia ip in BDF1 mice, survival T/C: 93 % of control

---

test system: L1210 leukemia ip in BDF1 mice, survival T/C; assay: NCI In Vivo Anticancer Drug Screen. Data for tumor model L1210 Leukemia (intraperitoneal) in B6D2F1 (BDF1) mice; details: endpoint: mean survival time; dose: 12.5 mg/kg/injection; schedule: Q04DX003 (ip); vehicle: saline; higher = longer survival
Inconclusive results and toxic doses are left out.
endpoint-label: T/C

CCCCCC[P+](c1ccccc1)(c1ccccc1)c1ccccc1	100 % of control
CC[N+](CC)(CCOC(=O)C1C2CC3OC(=O)C1C3C2)Cc1ccccc1 (configuration not stated)	89 % of control
CC(C)(C)C1CCC(NN)CC1 (configuration not stated)	98 % of control
COC(=O)/C=C\C[P+](c1ccccc1)(c1ccccc1)c1ccccc1	103 % of control
Cc1ncc(CO)c(C2NOCc3ncsc32)c1O (configuration not stated)	106 % of control

Reported T/C ( CN(C)c1ccc(-c2cc[n+](C)cc2)cc1 ) = 104 % of control

Reported T/C ( CC(=O)Nc1cc(F)c([N+](=O)[O-])cc1[N+](=O)[O-] ) = 86 % of control

---

test system: L1210 leukemia ip in BDF1 mice, survival T/C; test: NCI In Vivo Anticancer Drug Screen. Data for tumor model L1210 Leukemia (intraperitoneal) in B6D2F1 (BDF1) mice; conditions: endpoint: mean survival time; dose: 400.0 mg/kg/injection; schedule: Q04DX002 (ip); vehicle: Klucel (hydroxypropylcellulose) (HPC); higher = longer survival
Toxic doses and inconclusive results are not listed.
Measured T/C by item

CCN(CC#CCOc1ccc(Cl)cc1Cl)c1ccccc1	102 % of control
Nc1ccc2c(c1)oc1ccccc12	110 % of control
CCCCOC(=O)Nc1ccccc1OCC	98 % of control
NC(=O)CNC(c1ccccc1)C(O)c1ccccc1 (stereo not given)	102 % of control

Reported T/C ( CCOc1ccc(/C=C2\N=C(c3cc(OC)c(OC)c(OC)c3)OC2=O)cc1 ) = 96 % of control
